- measuredTarget: mTor (Homo sapiens)
- Construct: purchased Millipore/Merck KGA
- assayDetails: In vitro kinase inhibition, mTor (Millipore/Merck kinases panel screening)
- Assay type: biochemical
- assayConditions: compound at 0.03 μM; scaffold drawing 7 series
readoutType: activity at 0.03 µM (%)
Numbers only, in %.

These recorded examples may help you get a feel for the data.
Input: Input Fc1cc(-n2c3c4cc(-c5cnc6ccccc6c5)ccc4ncc3n3cnnc23)cc(C(F)(F)F)c1 , output reported activity at 0.03 µM.
Output: -8

Input: Input FC(F)(F)c1cc(-n2c3c4cc(-c5ccc(NCCN6CCOCC6)nc5)ccc4ncc3n3cnnc23)ccc1Cl , output reported activity at 0.03 µM.
Output: 20

Input: Input Fc1ccc(C(F)(F)F)cc1-n1c2c3cc(-c4cnc5ccccc5c4)ccc3ncc2n2cnnc12 , output reported activity at 0.03 µM.
Output: 0

Hello, I would appreciate it if you could give activity at 0.03 µM for each entry below.
1. FC(F)(F)c1cc(-n2c3c4cc(-c5cnc6ccccc6c5)ccc4ncc3n3cnnc23)ccc1Cl
2. FC(F)(F)c1cccc(-n2c3c4cc(-c5cccnc5)ccc4ncc3n3cnnc23)c1
3. CC(=O)Nc1ccc(-c2ccc3ncc4c(c3c2)n(-c2ccc(Cl)c(C(F)(F)F)c2)c2nncn42)cn1 [N-(5-pyridin-2-yl)acetamide, 4-Cl, H]

Output:
1: 11; 2: 0; 3: 5

Input: Input COCCNc1ccc(-c2ccc3ncc4c(c3c2)n(-c2ccc(Cl)c(C(F)(F)F)c2)c2nncn42)cn1 , output reported activity at 0.03 µM.
Output: -5
